Each recorded value in this set is attributed to PubChem BioAssay (NCI).

# Tested on: SF-295 CNS
# assay_method_text: NCI-60 one-dose screen, 48 h (100 = growth as untreated, 0 = no growth, -100 = all killed)
# test_settings: 10 µM unless noted
This is part of a sample that, as a whole, favours compounds with a hit. Of some 83,000 tested, about 20% had one in any assay.
assay_readout: growth (%)
// return numeric value only (unit: %, not printed)

Q: Given the entry `O=C(Nc1ccc(-n2cc(-c3ccncc3)c(-c3ccc(Cl)c(O)c3)n2)cc1)Nc1ccc(Cl)c(C(F)(F)F)c1` , what growth was observed with SF-295 CNS?
Ans: -44.5

Q: Given the entry `Cc1nc2ccccc2c(=O)n1-c1cccc(OCc2cn(-c3cccc(O)c3)nn2)c1` , what growth was observed with SF-295 CNS?
Ans: 93.8

Q: Given the entry O=C(OCC1CC2(Cl)C(Cl)=C(Cl)C1(Cl)C2(Cl)Cl)C1C(C(=O)OCC2CC3(Cl)C(Cl)=C(Cl)C2(Cl)C3(Cl)Cl)C2(Cl)C(Cl)=C(Cl)C1(Cl)C2(Cl)Cl (stereo not given) , what growth was observed with SF-295 CNS?
Ans: 94.8

Q: Given the entry `Cc1ccc([C@@H]2C[C@H](O)Cc3ccccc3N2)s1` , what growth was observed with SF-295 CNS?
Ans: 107

Q: Given the entry C=C1CCC2C3(C)COC(c4ccccc4)OC3CCC2(C)C1C/C=C1/C(=O)OCC1O (stereo not given) , what growth was observed with SF-295 CNS?
Ans: 87.6

Q: Given the entry CCOC(=O)C1=C(C(F)(F)F)NC(=O)NC1CN1C(=O)c2ccccc2C1=O (stereo not given) , what growth was observed with SF-295 CNS?
Ans: 104

Q: Given the entry `CC(=O)c1nn(-c2ccc(C)cc2)cc1C(=O)c1cc2c(ccc3ccccc32)oc1=O` , what growth was observed with SF-295 CNS?
Ans: 92.1

Q: Given the entry `CCOc1ccccc1/C=N\N=C(N/N=C/c1ccccc1OCC)N/N=C/c1ccccc1OCC` , what growth was observed with SF-295 CNS?
Ans: 9.61

Q: Given the entry `O=C(CBr)OCc1ccc([N+](=O)[O-])o1` , what growth was observed with SF-295 CNS?
Ans: 96.5

Q: Given the entry `COc1ccc2nc3cc(Cl)ccc3c(NCCCNC(C)=O)c2c1` , what growth was observed with SF-295 CNS?
Ans: 45.7

Q: Given the entry `O=C(N/N=C/c1coc2ccccc2c1=O)c1cc2oc(-c3ccccc3)cc2[nH]1` , what growth was observed with SF-295 CNS?
Ans: 103

Q: Given the entry CC(=O)CCS(=O)c1ccccc1 (stereo not given) , what growth was observed with SF-295 CNS?
Ans: 97.6

Q: Given the entry `Oc1ccccc1/C=N/N=C\c1ccccc1Cl` , what growth was observed with SF-295 CNS?
Ans: 98.7

Q: Given the entry `COc1ccc(CNCCCN2C(=O)c3ccc4c5c(ccc(c35)C2=O)C(=O)N(CCCNCc2ccc(OC)c(OC)c2OC)C4=O)c(OC)c1OC` , what growth was observed with SF-295 CNS?
Ans: -76.8

Q: Given the entry `CC(=O)/C(=C/c1ccc(-c2ccccc2)cc1)C(=O)c1ccccc1` , what growth was observed with SF-295 CNS?
Ans: 92.3

Q: Given the entry COc1cc(NC(C)CCCN)c2nc(C)ccc2c1OC (stereo not given) , what growth was observed with SF-295 CNS?
Ans: 118

Q: Given the entry `C#CCCCCCCC[C@@H]1OC(=O)[C@H]([C@@H](C)CC)NC(=O)[C@@H]([C@@H](C)CC)NC(=O)CC(=O)[C@@H]1C` , what growth was observed with SF-295 CNS?
Ans: 98.6

Q: Given the entry `Cc1ccc(CC(=O)O)c(C)c1` , what growth was observed with SF-295 CNS?
Ans: 97.1

Q: Given the entry `CCCCCCN(CCCCCC)CCC(=O)Nc1ccc(S(=O)(=O)c2ccc(NC(=O)CCN(CCCCCC)CCCCCC)cc2)cc1` , what growth was observed with SF-295 CNS?
Ans: 100

Q: Given the entry `COc1ccc(CN2C(=O)/C(=C\C(=O)c3ccc(OCCN4CCCCC4)cc3)c3ccccc32)cc1` , what growth was observed with SF-295 CNS?
Ans: 91.5

###

# Tested on: BT-549 breast
# assay_method_text: NCI-60 one-dose screen, 48 h
# test_settings: 10 µM unless noted
About 83,000 compounds went through this panel and 20% of them were active in at least one assay; those are over-represented in the sample as a whole. Active and inactive are the calls of the source. How the source made its calls: active means growth percent below 10; inactive means the rest.
Please reply with one of these outcomes: 1 for active, 0 for inactive

Q: Fill in: this test's call for `NC(N)=Nc1ccc(/C=C2\C=Cc3ccccc32)cc1` is ___
Ans: 0

Q: Fill in: this test's call for `COc1ccccc1Nc1nnc(COc2ccc(CNC(=O)CCCC/C=C/C(C)C)cc2OC)o1` is ___
Ans: 0

Q: Fill in: this test's call for CCOC(=O)C1=C(c2ccccc2)NC(=O)NC1CN1C(=O)c2ccccc2C1=O (stereo not given) is ___
Ans: 0

Q: Fill in: this test's call for `CCOC(=O)c1c2c(cn1Cc1ccccc1)-c1oncc1CC2` is ___
Ans: 0

Q: Fill in: this test's call for `O=C1C(=O)c2ccccc2C(O)=C1CCCc1ccc(Oc2ccccc2)cc1` is ___
Ans: 0

Q: Fill in: this test's call for `COc1ccc(Cn2cc3c(c2-c2ccccc2)CCc2cnoc2-3)cc1N` is ___
Ans: 0

Q: Fill in: this test's call for `COc1cc2c(c3c1c(=O)c1cccc(F)c1n3C)C=CC(C)(C)O2` is ___
Ans: 0

Q: Fill in: this test's call for `CCOC(=O)c1csc(-c2ccc(COC(=O)c3ccccc3)o2)n1` is ___
Ans: 0

Q: Fill in: this test's call for `COC(=O)[C@H](Cc1cn(C)cn1)NC(=O)[C@@H](NC(=O)Nc1cc(C(F)(F)F)cc(C(F)(F)F)c1)C(C)(C)C` is ___
Ans: 1

Q: Fill in: this test's call for `Cc1ncc(C(=O)Nc2ccc(CN3CCN(C)CC3)c(C(F)(F)F)c2)cc1C#Cc1cnc(NC2CC2)c2ncccc12` is ___
Ans: 1

###

# Tested on: PC-3 prostate
# assay_method_text: NCI-60 one-dose screen, 48 h (100 = growth as untreated, 0 = no growth, -100 = all killed)
# test_settings: 10 µM unless noted
This is part of a sample that, as a whole, favours compounds with a hit. Of some 83,000 tested, about 20% had one in any assay.
Quick rule for you: growth at 60% or higher means TRUE, lower means FALSE.

Q: Please tell me: is the molecule `C[C@@H](c1ccc2c(c1)[nH]c1ccc(Cl)cc12)c1nc2ccccc2[nH]1` at or over 60% in terms of growth?
Ans: TRUE

Q: Please tell me: is the molecule C/C=C(/C)C(=O)OC1C=C(CO)C(=O)C(OC(=O)C2(C)OC2C)C1C(C)C (stereo not given) at or over 60% in terms of growth?
Ans: FALSE

Q: Please tell me: is the molecule `O=C(Nc1cccc(Cn2c(=O)[nH]c3ccc(Oc4ncccn4)cc3c2=O)c1)c1cccc(F)c1` at or over 60% in terms of growth?
Ans: TRUE

Q: Please tell me: is the molecule `CC(=O)N(N=O)c1ccc([N+](=O)[O-])cc1Cl` at or over 60% in terms of growth?
Ans: FALSE

###

# Tested on: DU-145 prostate
# assay_method_text: NCI-60 one-dose screen, 48 h
# test_settings: 10 µM unless noted
The panel holds about 83,000 compounds, 20% with a hit somewhere; the sample as a whole holds those more often. Activity calls are given as the source filed them. Rule for the calls: active = growth percent below 10; inactive = the rest.
Please reply with one of these outcomes: active, inactive

Q: Fill in: this test's call for `CC[C@H](Nc1ncnc2nc[nH]c12)c1nc2cccc(NCc3ccc(C(=O)NO)o3)c2c(=O)n1-c1ccccc1` is ___
Ans: inactive

Q: Fill in: this test's call for CC1(C)CC(=O)C2=C(C1)Oc1nc(N)c(C#N)c(N)c1C2c1ccc(F)cc1 (configuration not stated) is ___
Ans: inactive

Q: Fill in: this test's call for `N=C(N)c1ccc(-c2ccc(-c3ccc(F)cc3)s2)cc1` is ___
Ans: active

Q: Fill in: this test's call for `C#CCCCCCCC[C@@H]1OC(=O)[C@H]([C@@H](C)CC)NC(=O)[C@H]([C@@H](C)CC)NC(=O)CC(=O)[C@@H]1C` is ___
Ans: inactive

Q: Fill in: this test's call for `O=C(CBr)OCc1ccc([N+](=O)[O-])o1` is ___
Ans: inactive

Q: Fill in: this test's call for CCC1(CC)C(OC)NC(Br)=C(C#N)C1(C#N)C(N)=O (configuration not stated) is ___
Ans: inactive

Q: Fill in: this test's call for `Nc1cc(N)c2nc(NCCc3ccc(Cl)c(Cl)c3)cnc2c1` is ___
Ans: inactive

Q: Fill in: this test's call for `Oc1ccc(N=Nc2ccc(N=Nc3ccccc3)cc2)cc1` is ___
Ans: inactive

Q: Fill in: this test's call for Nc1nc2c(c3cnccc13)C(c1cccc(Cl)c1)Cc1cnccc1-2 (configuration not stated) is ___
Ans: inactive

Q: Fill in: this test's call for `O=S(=O)(O)CCI` is ___
Ans: inactive

Q: Fill in: this test's call for `CCCCCCCCCCCCCCCCCCOP(=O)(O)O` is ___
Ans: inactive

Q: Fill in: this test's call for `Cc1cc2c(-c3nc4ccccc4n3C)c(O)c(O)cc2c(O)c1-c1c(C)cc2c(-c3nc4ccccc4n3C)c(O)c(O)cc2c1O` is ___
Ans: inactive

Q: Fill in: this test's call for `CCn1cnc(C[C@H](NC(=O)[C@@H](NC(=O)Nc2cc(C(F)(F)F)cc(C(F)(F)F)c2)C(C)C)C(=O)OC)c1` is ___
Ans: active

Q: Fill in: this test's call for `Nc1cc(N)c2nc(-c3ccccc3)c(NCCc3ccc(Cl)c(Cl)c3)nc2c1` is ___
Ans: active

Q: Fill in: this test's call for `COC(=O)[C@H](Cc1cn(C)cn1)NC(=O)[C@H](Cc1c[nH]c2ccccc12)NC(=O)Nc1cc(C(F)(F)F)cc(C(F)(F)F)c1` is ___
Ans: active

Q: Fill in: this test's call for O=P(OCCCl)(OCCCl)C(O)c1ccccc1Cl (configuration not stated) is ___
Ans: inactive

Q: Fill in: this test's call for `N#CCCCCCCCCCCC#N` is ___
Ans: inactive

Q: Fill in: this test's call for `O=C1OC(c2ccc(-c3ccccc3)cc2)=C/C1=C/c1c2ccccc2cc2ccccc12` is ___
Ans: inactive

Q: Fill in: this test's call for `COc1ccc(CNCCCN2C(=O)c3ccc4c5c(ccc(c35)C2=O)C(=O)N(CCCNCc2ccc(OC)c(OC)c2OC)C4=O)c(OC)c1OC` is ___
Ans: active

Q: Fill in: this test's call for CCOC(=O)C(C)C(C)(O)c1ccccc1 (configuration not stated) is ___
Ans: inactive

Q: Fill in: this test's call for `COc1ccccc1CNCCCN1C(=O)c2ccc3c4c(ccc(c24)C1=O)C(=O)N(CCCNCc1ccccc1OC)C3=O` is ___
Ans: active

Q: Fill in: this test's call for `Cc1cc2cn3c4ccc(O)cc4nc(N)c3c2cc1C` is ___
Ans: active

Q: Fill in: this test's call for `Cc1c(Cc2ccccc2)c(=O)oc2c(C)c(OCc3n[nH]c(=S)o3)ccc12` is ___
Ans: inactive

Q: Fill in: this test's call for `Clc1ccc(N/N=C(/c2ccccc2)c2ccccn2)nc1` is ___
Ans: inactive

Q: Fill in: this test's call for `O=C(N/N=C/c1ccccc1Cl)c1cccc2ccccc12` is ___
Ans: inactive

Q: Fill in: this test's call for C/C=C(/C)C(=O)OC1C=C(CO)C(=O)C(OC(=O)C2(C)OC2C)C1C(C)C (configuration not stated) is ___
Ans: active

Q: Fill in: this test's call for `Cc1c(C(N)=O)sc2c1c(=O)n(Cc1ccccc1)c1nnc(S(C)(=O)=O)n21` is ___
Ans: inactive

Q: Fill in: this test's call for `CCOc1ccc(N(C)c2ccc(/C=C/C3=[N+](C)c4ccccc4C3(C)C)cc2)cc1` is ___
Ans: active

Q: Fill in: this test's call for `COc1ccc(Cn2cc3c(c2-c2ccc(OC)cc2)CCc2cnoc2-3)cc1` is ___
Ans: inactive

Q: Fill in: this test's call for `COc1ccccc1Nc1nnc(COc2ccc(CNC(=O)CCCC/C=C/C(C)C)cc2OC)o1` is ___
Ans: inactive

Q: Fill in: this test's call for `Clc1ccc(N/N=C/c2ccccn2)nc1` is ___
Ans: inactive

Q: Fill in: this test's call for `COc1ccc(-c2nc(SCC(C)C)nc(Nc3ccc([N+](=O)[O-])cc3)c2C#N)cc1` is ___
Ans: inactive

Q: Fill in: this test's call for Cc1ccc(S(=O)(=O)NC(CCC(=O)Nc2ccccc2)C(=O)Nc2ccccc2)cc1 (configuration not stated) is ___
Ans: active

Q: Fill in: this test's call for `Cc1nc(NC(=O)NC2CCCCC2)sc1C(=O)NN` is ___
Ans: inactive

Q: Fill in: this test's call for `CSCc1ncc(-c2ccc(C(F)(F)F)cc2)c(NC2CCCCCC2)n1` is ___
Ans: inactive

Q: Fill in: this test's call for `Cc1ccc([C@@H]2C[C@H](O)Cc3ccccc3N2)s1` is ___
Ans: inactive

Q: Fill in: this test's call for `Clc1ccc(I)c2ccccc12` is ___
Ans: inactive

Q: Fill in: this test's call for `CCN(CC)c1ccc2nc3ccc(N=Nc4ccc(O)cc4)cc3[n+](-c3ccccc3)c2c1` is ___
Ans: inactive

Q: Fill in: this test's call for `COc1ccc(/C=C(/C(=O)N2CCCCC2)c2cc(OC)c(OC)c(OC)c2)cc1` is ___
Ans: active

Q: Fill in: this test's call for `COc1cc(Cn2ccc3c2-c2oncc2CC3)cc(OC)c1` is ___
Ans: inactive

Q: Fill in: this test's call for `COC(=O)CC(=O)C(=O)OC` is ___
Ans: inactive

Q: Fill in: this test's call for `COC(=O)Nc1nc2ccc(C(=O)c3ccccc3N(C)C3COC3)cc2[nH]1` is ___
Ans: inactive
